- Tested on: Hypoxia Inducible Factor-1 (HIF-1) pathway
- assay_protocol: cells
- reported_conditions: Homo sapiens, HeLa, 12 h, read-out: HRE IC50
quantity_kind: IC50 (µM)
Numeric only. Scale: µM

**Q:** # return IC50 for COC(=O)c1c(C#Cc2ccc(OC)cc2)cccc1-c1ccc(OC)cc1 , test system: Hypoxia Inducible Factor-1 (HIF-1) pathway
**A:** 5.41

**Q:** Tell me IC50 of COc1ccc(C2(c3ccc(OC)cc3)c3cc(O)ccc3-c3ccc(C#Cc4ccc(O)cc4)cc32)cc1 when tested on Hypoxia Inducible Factor-1 (HIF-1) pathway.
**A:** 5.55

**Q:** // output IC50; input O=c1oc(-c2ccc(O)cc2)cc2cccc(-c3ccc(O)cc3)c12 ; system Hypoxia Inducible Factor-1 (HIF-1) pathway
**A:** 13.7

**Q:** Would you please give the reported IC50 of COC(=O)c1cc(C#Cc2ccc(OC)cc2)ccc1-c1ccc(OC)cc1 with Hypoxia Inducible Factor-1 (HIF-1) pathway?
**A:** 18.3

**Q:** Answer briefly: IC50 recorded on Hypoxia Inducible Factor-1 (HIF-1) pathway for COc1ccc(C(O)(c2ccc(OC)cc2)c2cc(C#Cc3ccc(O)cc3)ccc2-c2ccc(O)cc2)cc1
**A:** 2.52

**Q:** Give IC50 for COc1ccc(C#Cc2ccc(-c3ccc(OC)cc3)c(C(=O)c3ccc(OC)cc3)c2)cc1 tested on Hypoxia Inducible Factor-1 (HIF-1) pathway.
**A:** 39.9

**Q:** State measured IC50 of the compound COc1ccc(C#Cc2ccc(-c3ccc(OC)cc3)c(C(=O)O)c2)cc1 with Hypoxia Inducible Factor-1 (HIF-1) pathway.
**A:** 15.6

**Q:** Tell me its IC50 on Hypoxia Inducible Factor-1 (HIF-1) pathway: COc1ccc(-c2ccc(C#Cc3ccc(O)cc3)cc2C(O)(c2ccc(OC)cc2)c2ccc(OC)cc2)cc1
**A:** 8.1

**Q:** Under Hypoxia Inducible Factor-1 (HIF-1) pathway: report IC50 of COc1ccc(C#Cc2cccc(-c3ccc(OC)cc3)c2C(=O)c2ccc(OC)cc2)cc1 .
**A:** 2.36

**Q:** Report IC50 on Hypoxia Inducible Factor-1 (HIF-1) pathway for this entry: COc1ccc(C(=O)c2c(C#Cc3ccc(O)cc3)cccc2-c2ccc(O)cc2)cc1
**A:** 9.52

**Q:** Give Hypoxia Inducible Factor-1 (HIF-1) pathway IC50 for the following compound: COc1ccc(C#Cc2cccc(-c3ccc(OC)cc3)c2C(=O)O)cc1
**A:** 20.7

**Q:** Given CCCCC(O)(c1ccc(OC)cc1)c1cc(C#Cc2ccc(OC)cc2)ccc1-c1ccc(OC)cc1 (centres unmarked) , report its IC50 on Hypoxia Inducible Factor-1 (HIF-1) pathway.
**A:** 1.89

**Q:** Answer briefly: IC50 recorded on Hypoxia Inducible Factor-1 (HIF-1) pathway for COc1ccc(C#Cc2ccc(-c3ccc(OC)cc3)c(C(O)(c3ccc(OC)cc3)c3ccc(OC)cc3)c2)cc1
**A:** 20.8

**Q:** Param request: IC50 | system Hypoxia Inducible Factor-1 (HIF-1) pathway | item COc1ccc(C(=O)c2cc(C#Cc3ccc(O)cc3)ccc2-c2ccc(O)cc2)cc1
**A:** 4.47
